system: human erythrocytes; test: Hemolytic activity assay; format: cell-based; settings: 64 μM; human RBC in PB, 37°C, 1 h; OD420; total lysis control 0.1% SDS; three technical replicates
Where a SMILES comes first, the peptide text is derived from it. [ ]: non-standard residue; d: D form. hArg = N=C(N)NCCCC[C@H](N)C(=O)O; 2Thi = N[C@@H](Cc1cccs1)C(=O)O; Dab = NCC[C@H](N)C(=O)O; Dap = NC[C@H](N)C(=O)O
Reported Hemolysis rate (%) by item:
Numeric answer only, unit % assumed.

| compound | property-label | reported-measurement |
| --- | --- | --- |
| CC(C)C[C@H](NC(=O)[C@H](Cc1ccc(O)cc1)NC(=O)[C@H](CCN)NC(=O)[C@H](CC(C)C)NC(=O)[C@H](CC(C)C)NC(=O)[C@H](CCN)NC(=O)[C@H](CN)NC(=O)[C@H](Cc1cccs1)NC(=O)[C@H](CC(C)C)NC(=O)[C@H](CCCNC(=N)N)NC(=O)[C@@H](N)CCN)C(=O)N[C@@H](CCCCNC(=N)N)C(=O)N[C@@H](CCN)C(=O)N[C@@H](Cc1ccccc1)C(N)=O [UP15] (H-[Dab]RL[2Thi][Dap][Dab]LL[Dab]YL[hArg][Dab]F-NH2) | Hemolysis rate (%) | 54.16 |

--- query ---
Recorded Hemolysis rate (%) (compound CC(C)C[C@H](NC(=O)[C@H](Cc1ccc(O)cc1)NC(=O)[C@H](CCCCN)NC(=O)[C@H](CC(C)C)NC(=O)[C@H](CC(C)C)NC(=O)[C@@H](CCCCN)NC(=O)[C@@H](CCCCN)NC(=O)[C@H](Cc1ccccc1)NC(=O)[C@H](CC(C)C)NC(=O)[C@H](CCCNC(=N)N)NC(=O)[C@@H](N)CCCCN)C(=O)N[C@@H](CCCNC(=N)N)C(=O)N[C@H](CCCCN)C(=O)N[C@@H](Cc1ccccc1)C(N)=O [DP04] (H-KRLF[dK][dK]LLKYLR[dK]F-NH2) ): 38.84

All values here come from paper PMC7688903.
